System: NCI-H69 SCLC tumors
assayProtocol: H69 tumor DM-1 levels by LC/MS-MS
Type: in vivo, mice
conditionInfo: 1 mg/kg; 24 hour time point
Starred links: 1 amine or outer side, 2 acyl side, 3 side chain; linkers in the order of their positions; H or OH if unused. Positions of bridges follow the written chain, without caps; N, C: chain ends. Non-standard residues stand in square brackets, D forms with d. Residues, ends and D or L forms follow the SMILES beside them. *: point of attachment. X1 = COc1cc2cc(c1Cl)N(C)C(=O)C[C@H](OC(=O)[C@H](C)N(C)C(=O)CCS*)[C@]1(C)O[C@H]1[C@H](C)[C@@H]1C[C@@](O)(NC(=O)O1)[C@H](OC)/C=C/C=C(\C)C2; N(3-sulfanylpropyl)dPhe = O=C([C@@H](Cc1ccccc1)N(CCCS[*:3])[*:1])[*:2]

[
  {
    "molecule": "COc1cc2cc(c1Cl)N(C)C(=O)C[C@H](OC(=O)[C@H](C)N(C)C(=O)CCSSCCOc1ccc(C[C@@H](N)C(=O)N[C@H]3CSSC[C@@H](C(=O)N[C@H](C(=O)O)[C@@H](C)O)NC(=O)[C@H]([C@@H](C)O)NC(=O)[C@H](CCCCN)NC(=O)[C@@H](Cc4c[nH]c5ccccc45)NC(=O)[C@H](Cc4ccc(O)cc4)NC3=O)cc1)[C@]1(C)O[C@H]1[C@H](C)[C@@H]1C[C@@](O)(NC(=O)O1)[C@H](OC)/C=C/C=C(\\C)C2 [Conjugate 111]",
    "assayedTarget": "NCI-H69 SCLC tumors",
    "H69 tumor DM-1 levels, nM": 82.6
  },
  {
    "molecule": "COc1cc2cc(c1Cl)N(C)C(=O)C[C@H](OC(=O)[C@H](C)N(C)C(=O)CCSSCCNC(=O)[C@@H](NC(=O)[C@@H]1CSSC[C@H](NC(=O)[C@H](N)Cc3ccccc3)C(=O)N[C@@H](Cc3ccc(O)cc3)C(=O)N[C@H](Cc3c[nH]c4ccccc34)C(=O)N[C@@H](CCCCN)C(=O)N[C@@H]([C@@H](C)O)C(=O)N1)[C@@H](C)O)[C@]1(C)O[C@H]1[C@H](C)[C@@H]1C[C@@](O)(NC(=O)O1)[C@H](OC)/C=C/C=C(\\C)C2 [Conjugate 35]",
    "assayedTarget": "NCI-H69 SCLC tumors",
    "H69 tumor DM-1 levels, nM": 23.2
  },
  {
    "molecule": "COc1cc2cc(c1Cl)N(C)C(=O)C[C@H](OC(=O)[C@H](C)N(C)C(=O)CCSSCCCN[C@H](Cc1ccccc1)C(=O)N[C@H]1CSSC[C@@H](C(=O)N[C@@H](Cc3c[nH]c4ccccc34)C(N)=O)NC(=O)[C@H](C(C)C)NC(=O)[C@H](CCCCN)NC(=O)[C@@H](Cc3c[nH]c4ccccc34)NC(=O)[C@H](Cc3ccc(O)cc3)NC1=O)[C@]1(C)O[C@H]1[C@H](C)[C@@H]1C[C@@](O)(NC(=O)O1)[C@H](OC)/C=C/C=C(\\C)C2 [Conjugate 78] (H-[N(3-sulfanylpropyl)dPhe](X1)CY[dW]KVCW-NH2; disulfide 2-7)",
    "assayedTarget": "NCI-H69 SCLC tumors",
    "H69 tumor DM-1 levels, nM": 36.2
  },
  {
    "molecule": "CCCCCCCCN[C@H](Cc1ccccc1)C(=O)N[C@H]1CSSC[C@@H](C(=O)N[C@H](C(=O)NCCSSCCC(=O)N(C)[C@@H](C)C(=O)O[C@H]2CC(=O)N(C)c3cc(cc(OC)c3Cl)C/C(C)=C/C=C/[C@@H](OC)[C@@]3(O)C[C@H](OC(=O)N3)[C@@H](C)[C@@H]3O[C@@]23C)[C@@H](C)O)NC(=O)[C@H]([C@@H](C)O)NC(=O)[C@H](CCCCN)NC(=O)[C@@H](Cc2c[nH]c3ccccc23)NC(=O)[C@H](Cc2ccc(O)cc2)NC1=O [Conjugate 55]",
    "assayedTarget": "NCI-H69 SCLC tumors",
    "H69 tumor DM-1 levels, nM": 95.3
  }
]

---

Test system: NCI-H69 SCLC tumors
assayProtocol: H69 tumor DM-1 levels by LC/MS-MS
Assay type: in vivo, mice
conditionInfo: 1 mg/kg; 24 hour time point
Recorded H69 tumor DM-1 levels, one value per entry.
valueType: H69 tumor DM-1 levels

[
  {
    "molecule": "COc1cc2cc(c1Cl)N(C)C(=O)C[C@H](OC(=O)[C@H](C)N(C)C(=O)CCSSC[C@H](NC(=O)[C@@H]1CSSC[C@H](NC(=O)[C@H](N)Cc3ccccc3)C(=O)N[C@@H](Cc3ccc(O)cc3)C(=O)N[C@H](Cc3c[nH]c4ccccc34)C(=O)N[C@@H](CCCCN)C(=O)N[C@@H]([C@@H](C)O)C(=O)N1)C(N)=O)[C@]1(C)O[C@H]1[C@H](C)[C@@H]1C[C@@](O)(NC(=O)O1)[C@H](OC)/C=C/C=C(\\C)C2 [Conjugate 57]",
    "observedMeasurement": "243 nM"
  },
  {
    "molecule": "COc1cc2cc(c1Cl)N(C)C(=O)C[C@H](OC(=O)C(C)N(C)C(=O)CCSSCCC(=O)NCCCOCCOCCOCCCNC(=O)CC[C@H]1C(=O)N[C@@H](Cc3ccc(O)cc3)C(=O)N[C@H](Cc3c[nH]c4ccccc34)C(=O)N[C@@H](CCCCN)C(=O)N[C@@H]([C@@H](C)O)C(=O)N[C@@H](Cc3ccccc3)C(=O)N1C)[C@]1(C)O[C@H]1[C@H](C)[C@@H]1C[C@@](O)(NC(=O)O1)[C@H](OC)/C=C/C=C(\\C)C2 (stereo partly drawn) [Conjugate 18]",
    "observedMeasurement": "86.3 nM"
  },
  {
    "molecule": "COc1cc2cc(c1Cl)N(C)C(=O)C[C@H](OC(=O)[C@H](C)N(C)C(=O)CCSSCCCN[C@H](Cc1ccccc1)C(=O)N[C@H]1CSSC[C@@H](C(=O)N[C@H](CO)[C@@H](C)O)NC(=O)[C@H]([C@@H](C)O)NC(=O)[C@H](CCCCN)NC(=O)[C@@H](Cc3c[nH]c4ccccc34)NC(=O)[C@H](Cc3ccccc3)NC1=O)[C@]1(C)O[C@H]1[C@H](C)[C@@H]1C[C@@](O)(NC(=O)O1)[C@H](OC)/C=C/C=C(\\C)C2 [Conjugate 76]",
    "observedMeasurement": "62.2 nM"
  }
]

---

Recorded H69 tumor DM-1 levels, one value per entry.
Test system: NCI-H69 SCLC tumors
assayProtocol: H69 tumor DM-1 levels by LC/MS-MS
Assay type: in vivo, mice
conditionInfo: 1 mg/kg; 24 hour time point

[
  {
    "compound": "COc1cc2cc(c1Cl)N(C)C(=O)C[C@H](OC(=O)[C@H](C)N(C)C(=O)CCSSCCC(=O)NCc1ccc(C[C@@H](N)C(=O)N[C@H]3CSSC[C@@H](C(=O)N[C@H](C(=O)O)[C@@H](C)O)NC(=O)[C@H]([C@@H](C)O)NC(=O)[C@H](CCCCN)NC(=O)[C@@H](Cc4c[nH]c5ccccc45)NC(=O)[C@H](Cc4ccc(O)cc4)NC3=O)cc1)[C@]1(C)O[C@H]1[C@H](C)[C@@H]1C[C@@](O)(NC(=O)O1)[C@H](OC)/C=C/C=C(\\C)C2 [Conjugate 115]",
    "H69 tumor DM-1 levels [nM]": 37.1
  },
  {
    "compound": "COc1cc2cc(c1Cl)N(C)C(=O)C[C@H](OC(=O)[C@H](C)N(C)C(=O)CCSSCCNC(=O)CC[C@H]1C(=O)N[C@@H](Cc3ccc(O)cc3)C(=O)N[C@H](Cc3c[nH]c4ccccc34)C(=O)N[C@@H](CCCCN)C(=O)N[C@@H]([C@@H](C)O)C(=O)N[C@@H](Cc3ccccc3)C(=O)N1C)[C@]1(C)O[C@H]1[C@H](C)[C@@H]1C[C@@](O)(NC(=O)O1)[C@H](OC)/C=C/C=C(\\C)C2 [Conjugate 14]",
    "H69 tumor DM-1 levels [nM]": 70.1
  },
  {
    "compound": "CCCCN(CCSSCCC(=O)N(C)[C@@H](C)C(=O)O[C@H]1CC(=O)N(C)c2cc(cc(OC)c2Cl)C/C(C)=C/C=C/[C@@H](OC)[C@@]2(O)C[C@H](OC(=O)N2)[C@@H](C)[C@@H]2O[C@@]12C)C(=O)CC[C@H]1C(=O)N[C@@H](Cc2ccc(O)cc2)C(=O)N[C@H](Cc2c[nH]c3ccccc23)C(=O)N[C@@H](CCCCN)C(=O)N[C@@H]([C@@H](C)O)C(=O)N[C@@H](Cc2ccccc2)C(=O)N1C [Conjugate 22]",
    "H69 tumor DM-1 levels [nM]": 145
  }
]

---

Recorded H69 tumor DM-1 levels, one value per entry.
Tested on: NCI-H69 SCLC tumors
assayProtocol: H69 tumor DM-1 levels by LC/MS-MS
Format: in vivo, mice
conditionInfo: 1 mg/kg; 24 hour time point

[
  {
    "compound": "COc1cc2cc(c1Cl)N(C)C(=O)C[C@H](OC(=O)[C@H](C)N(C)C(=O)CCSSCCCN[C@H](Cc1ccccc1)C(=O)N[C@H]1CSSC[C@@H](C(=O)N[C@H](C(=O)O)[C@@H](C)O)NC(=O)[C@H]([C@@H](C)O)NC(=O)[C@H](CCCCN)NC(=O)[C@@H](Cc3c[nH]c4ccccc34)NC(=O)[C@H](Cc3ccc(O)cc3)NC1=O)[C@]1(C)O[C@H]1[C@H](C)[C@@H]1C[C@@](O)(NC(=O)O1)[C@H](OC)/C=C/C=C(\\C)C2 [Conjugate 80]",
    "assayedTarget": "NCI-H69 SCLC tumors",
    "H69 tumor DM-1 levels": "91.2 nM"
  },
  {
    "compound": "COc1cc2cc(c1Cl)N(C)C(=O)C[C@H](OC(=O)[C@H](C)N(C)C(=O)CCSSCCC(=O)NCCCC[C@H]1C(=O)N[C@@H](Cc3ccc(O)cc3)C(=O)N[C@H](Cc3c[nH]c4ccccc34)C(=O)N[C@@H](CCCCN)C(=O)N[C@@H]([C@@H](C)O)C(=O)N[C@@H](Cc3ccccc3)C(=O)N1C)[C@]1(C)O[C@H]1[C@H](C)[C@@H]1C[C@@](O)(NC(=O)O1)[C@H](OC)/C=C/C=C(\\C)C2 [Conjugate 10]",
    "assayedTarget": "NCI-H69 SCLC tumors",
    "H69 tumor DM-1 levels": "72.1 nM"
  },
  {
    "compound": "COc1cc2cc(c1Cl)N(C)C(=O)C[C@H](OC(=O)[C@H](C)N(C)C(=O)CCSSC[C@H](NC(=O)CC[C@H]1C(=O)N[C@@H](Cc3ccc(O)cc3)C(=O)N[C@H](Cc3c[nH]c4ccccc34)C(=O)N[C@@H](CCCCN)C(=O)N[C@@H]([C@@H](C)O)C(=O)N[C@@H](Cc3ccccc3)C(=O)N1C)C(=O)NC(C)(C)CC(C)(C)C)[C@]1(C)O[C@H]1[C@H](C)[C@@H]1C[C@@](O)(NC(=O)O1)[C@H](OC)/C=C/C=C(\\C)C2 [Conjugate 16]",
    "assayedTarget": "NCI-H69 SCLC tumors",
    "H69 tumor DM-1 levels": "96.4 nM"
  }
]
